assay: Neutral Red (Toxicity) of the antiviral screening; conditions: human, Huh7 cells, CC50, Assay No. 1; Neutral Red (Cytopathic effect/Toxicity) line
observed_property: CC50

Q. Recorded CC50 for CN(C)CCCn1c(N)nc2ccc3c(c21)CC(CO)O3 (stereo not shown) , please?
A. > 100 µM

Where do the numbers come from? From patent US12227512B2.
